# Target Desc: human liver Cathepsin B (Homo sapiens, UniProt P07858)
# Construct: human liver Cathepsin B (manufactured by Sigma-Aldrich Co. LLC, Cat No. C8571 25 μg/vial); purchased Sigma-Aldrich Co. LLC C8571; host or cells: human liver
# Method Summary: Metabolism test using human liver Cathepsin B
# Type: in vitro ADME
# Applied Conditions: 37° C., 24 hours, released drug, LC-MS/MS
Numbered stars: 1 amine (or outer) side, 2 acyl side, 3 side chain; on linkers, the order of the positions; unused ones are H or OH. Square brackets hold non-standard residues; d marks the D form. Peptide text beside a SMILES is read from it. * marks the point of attachment. Exatecan = CC[C@@]1(O)C(=O)OCc2c1cc1n(c2=O)Cc2c-1nc1cc(F)c(C)c3c1c2[C@@H](N*)CC3; Propanoyl(3-maleimido) = O=C1C=CC(=O)N1CCC(=O)*; PABC = O=C(OCc1ccc(N[*:1])cc1)[*:2]; hSer(lactone) = O=C1OCC[C@@H]1N*; Cit = NC(=O)NCCC[C@H](N)C(=O)O; PEG4 = NCCOCCOCCOCCOCCC(=O)O; Sar = CNCC(=O)O
Parameter Measured: Release rate (%) of drug from ADC
Numbers only here, please. The scale is %.

Sample answers from the record:
Compound: CC[C@@]1(O)C(=O)OCc2c1cc1n(c2=O)Cc2c-1nc1cc(F)c(C)c3c1c2[C@@H](NC(=O)CN(C)C(=O)OCc1ccc(NC(=O)[C@H](CCCNC(N)=O)NC(=O)[C@@H](NC(=O)[C@H](CC(=O)N[C@H]2CCOC2=O)NC(=O)CCOCCOCCOCCOCCNC(=O)CCN2C(=O)C=CC2=O)C(C)C)cc1)CC3 [Example 4] ({Propanoyl(3-maleimido)-PEG4}-D(hSer(lactone))V[Cit][PABC][Sar]-Exatecan)
Unit Annotation: %
Recorded Result: 97

Compound: CCN(CC(=O)N[C@H]1CCc2c(C)c(F)cc3nc4c(c1c23)Cn1c-4cc2c(c1=O)COC(=O)[C@]2(O)CC)C(=O)OCc1ccc(NC(=O)[C@H](CCCNC(N)=O)NC(=O)[C@@H](NC(=O)[C@H](CC(=O)N[C@H]2CCOC2=O)NC(=O)CCOCCOCCOCCOCCNC(=O)[C@H](CNC(=O)CCP(=O)(O)O)N2C(=O)C=CC2=O)C(C)C)cc1
Unit Annotation: %
Recorded Result: 40

Compound: C=C1C[C@@H]2CC[C@@]34C[C@H]5O[C@H]6[C@@H](O3)[C@H]3O[C@H](CC[C@@H]3O[C@H]6[C@H]5O4)CC(=O)C[C@@H]3[C@@H](OC)[C@@H](C[C@H](O)CNC(=O)OCc4ccc(NC(=O)[C@H](CCCNC(N)=O)NC(=O)[C@@H](NC(=O)[C@H](CC(=O)N[C@H]5CCOC5=O)NC(=O)[C@H](CCCCN(C)C)NC(=O)CCOCCOCCOCCOCCNC(=O)[C@H](CNC(=O)CCP(=O)(O)O)N5C(=O)C=CC5=O)C(C)C)cc4)O[C@H]3C[C@H]3O[C@@H](CC[C@@H]1O2)C[C@@H](C)C3=C
Unit Annotation: %
Recorded Result: 64

From here, focus on the item given below.
Requested read-out: Release rate (%) of drug from ADC. Entry: `C=C1C[C@@H]2CC[C@@]34C[C@H]5O[C@H]6[C@@H](O3)[C@H]3O[C@H](CC[C@@H]3O[C@H]6[C@H]5O4)CC(=O)C[C@@H]3[C@@H](OC)[C@@H](C[C@H](O)CNC(=O)OCc4ccc(NC(=O)[C@H](CCCNC(N)=O)NC(=O)[C@@H](NC(=O)[C@H](CC(=O)N[C@H]5CCOC5=O)NC(=O)CN(C)CCNC(=O)CCOCCOCCOCCOCCNC(=O)[C@H](CNC(=O)CCP(=O)(O)O)N5C(=O)C=CC5=O)C(C)C)cc4)O[C@H]3C[C@H]3O[C@@H](CC[C@@H]1O2)C[C@@H](C)C3=C`
62
